test system: Human coronavirus OC43; assay: Antiviral activity against HCoV-OC43 infected in human NCI-H460 cells treated for 72 hrs by CPE inhibition assay; type: functional, organism-based; conditions: Betacoronavirus 1, NCI-H460, 72 h
# Lookup of reported EC50 keyed by entry

Solved entries (count: 3):
CCOc1ccc2nc(NCC3CCCO3)nc(Nc3cc(C(F)(F)F)cc(C(F)(F)F)c3)c2c1 (stereo not given): 0.09 µM
COC(=O)c1cc(Nc2ncnc3ccc(OC)cc23)cc(C(=O)OC)c1: 55.6 µM
COC(=O)c1cc(F)cc(Nc2ncnc3ccc(OC)cc23)c1: > 55.6 µM

Next item in the queue.
Task: May I ask what EC50 has been recorded for COc1ccc2ncnc(Nc3cc(Cl)cc(C(F)(F)F)c3)c2c1 ?
Output: 1.43 µM

---

experiment: Cytotoxicity in human NCI-H460 cells infected with HCoV-OC43 treated for 72 hrs by CPE inhibition assay; type: toxicity, cell-based; details: read-out: TC50
readout: CC50 at 72 h (µM)
Provide the reading as a plain figure in µM.

Solved entries (count: 5):
CCOc1ccc2nc(NC3CC3)nc(Nc3cc(C(F)(F)F)cc(C(F)(F)F)c3)c2c1: 4.81
CCOc1ccc2nc(NCCOC)nc(Nc3cc(C(F)(F)F)cc(C(F)(F)F)c3)c2c1: 5.77
CC/C=C/c1cc(OC)c(CC=C(C)C)c(O)c1C(=O)O: 46.2
COc1ccc2ncnc(Nc3cc(Cl)cc(C(F)(F)F)c3)c2c1: 129
CN(C)c1ccc(Nc2ncnc3ccc(Cl)cc23)cc1Cl: 4.28

Task: May I ask what CC50 at 72 h has been recorded for COc1ccc2ncnc(Nc3cc(C#N)cc(C(F)(F)F)c3)c2c1 ?
Output: 240

Task: Now consider COC(=O)c1cc(Nc2ncnc3ccc(OC)cc23)cc(C(=O)OC)c1 .
Output: 240

Task: Now consider CCOc1ccc2nc(NC(C)C)nc(Nc3cc(C(F)(F)F)cc(C(F)(F)F)c3)c2c1 .
Output: 8.9

Task: Now consider COc1ccc2ncnc(Nc3cc([N+](=O)[O-])cc(C(F)(F)F)c3)c2c1 .
Output: 96.2

Task: Now consider Clc1ccc(Nc2ncnc3ccc(Cl)cc23)c(Cl)c1 .
Output: 15.4

Task: Now consider CCOc1ccc2nc(NCC(F)(F)F)nc(Nc3cc(C(F)(F)F)cc(C(F)(F)F)c3)c2c1 .
Output: 32.1

Task: Now consider CCOc1ccc2nc(NCC(=O)OC(C)(C)C)nc(Nc3cc(C(F)(F)F)cc(C(F)(F)F)c3)c2c1 .
Output: 18.5

Task: Now consider COc1ccc2ncnc(Nc3cccc(C(F)(F)F)c3)c2c1 .
Output: 10.7

Task: Now consider O=[N+]([O-])c1ccc(Nc2ncnc3ccc(Cl)cc23)cc1 .
Output: 46.2

Task: Now consider O=[N+]([O-])c1ccc2ncnc(Nc3cc(C(F)(F)F)cc(C(F)(F)F)c3)c2c1 .
Output: 3.56

Task: Now consider COc1ccc2ncnc(Nc3cc(Cl)cc(C#N)c3)c2c1 .
Output: 240

Task: Now consider FC(F)(F)c1cc(Nc2ncnc3ccc(I)cc23)cc(C(F)(F)F)c1 .
Output: 7.95

Task: Now consider Clc1ccc(Nc2ncnc3ccc(Cl)cc23)cc1 .
Output: 12.8

Task: Now consider O=[N+]([O-])c1ccc(CNc2ncnc3ccc(Cl)cc23)cc1 .
Output: 167

Task: Now consider Nc1ccc2ncnc(Nc3cc(C(F)(F)F)cc(C(F)(F)F)c3)c2c1 .
Output: 10.7

Task: Now consider N#Cc1ccc(Nc2ncnc3ccc(Cl)cc23)cc1 .
Output: 28.6
